Data origin, for the record: ChEMBL document CHEMBL4819027

// IC50 lookup, one value per entry
Test system: HT-29
Procedure Text: Antiproliferative activity against human HT-29 cells assessed as cell growth inhibition after 72 hrs by MTT assay
Assay type: functional, cell-based
Experimental Parameters: HT-29, 72 h

>  <Query Smiles>
Cc1ccc(NC(=O)Cn2nc(C)c(-c3ccc4c(NC(=O)C5CC5)n[nH]c4c3)c2C)cc1C(F)(F)F

>  <IC50 (µM)>
14.7

$$$$
>  <Query Smiles>
Nc1n[nH]c2cc(-c3cnn(CC(=O)Nc4cc(C(F)(F)F)ccc4F)c3)ccc12

>  <IC50 (µM)>
7.83

$$$$
>  <Query Smiles>
Cc1ccc(NC(=O)Cn2cc(-c3ccc4c(NC(=O)c5cnn(C)c5)n[nH]c4c3)cn2)cc1C(F)(F)F

>  <IC50 (µM)>
4.92

$$$$
>  <Query Smiles>
O=C(Cn1cc(-c2ccc3c(Nc4cccnc4)n[nH]c3c2)cn1)Nc1ccc(Cl)c(C(F)(F)F)c1

>  <IC50 (µM)>
5.21

$$$$
